# Test summary: Cytotoxicity against African green monkey Vero cells assessed as reduction in cell viability by MTT assay
# Type: cell-based
# Measurement parameters: chlorocebus sabaeus
Exercise: state measured CC50 for each of the compounds provided.
Numbers only, in µM.

Please review the entries below; each comes with its answer.
- Item smiles: "Cc1c(C(=O)C(=O)Nc2nc3ccccc3[nH]2)c(C)n(C)c1C(=O)Nc1ccc(F)c(F)c1"
  Readout kind: "CC50"
  Obs value: 46.9
- Item smiles: "Cc1c(C(=O)C(=O)NCc2ccccn2)c(C)n(C)c1C(=O)Nc1ccc(F)c(F)c1"
  Readout kind: "CC50"
  Obs value: 9.6
- Item smiles: "Cn1cc(C(=O)C(=O)N2CCOCC2)cc1C(=O)Nc1ccc(F)c(F)c1"
  Readout kind: "CC50"
  Obs value: 41.9
- Item smiles: "Cn1cc(C(=O)C(=O)Nc2ccccc2)cc1C(=O)Nc1ccc(F)c(F)c1"
  Readout kind: "CC50"
  Obs value: 13.4

Please give the documented CC50 of "C=CCNC(=O)C(=O)c1cc(C(=O)Nc2ccc(F)c(F)c2)n(C)c1"
68.1

Data provenance: ChEMBL document CHEMBL4680340
